Test system: Hs-578T
assayMethodText: NCI tumour cell line growth inhibition, 48 h
The source made the active and inactive calls. No stated cut-off is given here; in the data, active = GI50 up to about 1.1 µM and inactive = higher.
Outcome codes: TRUE = active, FALSE = inactive

compound	systemTested	assignedCategory
CC(=O)O[C@H]1C(=O)[C@@]2(C)[C@H]([C@H](OC(=O)C3CCCCC3)[C@]3(O)C[C@H](OC(=O)[C@H](O)[C@@H](NC(=O)OC(C)(C)C)c4ccccc4)C(C)=C1C3(C)C)[C@]1(OC(C)=O)CO[C@@H]1C[C@@H]2O	Hs-578T	TRUE
CC1CC[C@@]2(OC1)OC1CC3C4CCC5C[C@@H](OC6OC(CO)C(OC7OC(CO)C(O)C(OC8OC(CO)C(O)C(OC9OC(CO)C(O)C(O)C9O)C8O)C7OC7OC(CO)C(O)C(O)C7O)C(O)C6O)[C@H](O)C[C@]5(C)C4CC[C@]3(C)C1[C@@H]2C (stereo partly drawn)	Hs-578T	FALSE
Cc1cccc2c1C(=O)/C(=C/c1ccccc1C(=O)O)C2	Hs-578T	FALSE
CC(C)(C)c1cc(-c2cc(C(C)(C)C)[nH]n2)[nH]n1	Hs-578T	FALSE
N#CSC/C(Cl)=C/Cl.N#CSC/C(Cl)=C\Cl	Hs-578T	FALSE
Cc1cc2c(cc1C)C(=O)/C(=N/Nc1ccc(F)cc1)CCO2	Hs-578T	FALSE
N=c1[nH]cnc2c1nnn2C1C=CC(COS(N)(=O)=O)C1 (stereo not drawn)	Hs-578T	FALSE
Cc1cccc(-c2cc(O)c3ccc(C)nc3n2)c1	Hs-578T	TRUE

Where do the numbers come from? From ChEMBL document CHEMBL1201862.
